Target: HER2 INS YVMA (Homo sapiens, UniProt P04626, INS775YVMA)
Sequence (P04626 with tags, fused parts or gaps INS775YVMA): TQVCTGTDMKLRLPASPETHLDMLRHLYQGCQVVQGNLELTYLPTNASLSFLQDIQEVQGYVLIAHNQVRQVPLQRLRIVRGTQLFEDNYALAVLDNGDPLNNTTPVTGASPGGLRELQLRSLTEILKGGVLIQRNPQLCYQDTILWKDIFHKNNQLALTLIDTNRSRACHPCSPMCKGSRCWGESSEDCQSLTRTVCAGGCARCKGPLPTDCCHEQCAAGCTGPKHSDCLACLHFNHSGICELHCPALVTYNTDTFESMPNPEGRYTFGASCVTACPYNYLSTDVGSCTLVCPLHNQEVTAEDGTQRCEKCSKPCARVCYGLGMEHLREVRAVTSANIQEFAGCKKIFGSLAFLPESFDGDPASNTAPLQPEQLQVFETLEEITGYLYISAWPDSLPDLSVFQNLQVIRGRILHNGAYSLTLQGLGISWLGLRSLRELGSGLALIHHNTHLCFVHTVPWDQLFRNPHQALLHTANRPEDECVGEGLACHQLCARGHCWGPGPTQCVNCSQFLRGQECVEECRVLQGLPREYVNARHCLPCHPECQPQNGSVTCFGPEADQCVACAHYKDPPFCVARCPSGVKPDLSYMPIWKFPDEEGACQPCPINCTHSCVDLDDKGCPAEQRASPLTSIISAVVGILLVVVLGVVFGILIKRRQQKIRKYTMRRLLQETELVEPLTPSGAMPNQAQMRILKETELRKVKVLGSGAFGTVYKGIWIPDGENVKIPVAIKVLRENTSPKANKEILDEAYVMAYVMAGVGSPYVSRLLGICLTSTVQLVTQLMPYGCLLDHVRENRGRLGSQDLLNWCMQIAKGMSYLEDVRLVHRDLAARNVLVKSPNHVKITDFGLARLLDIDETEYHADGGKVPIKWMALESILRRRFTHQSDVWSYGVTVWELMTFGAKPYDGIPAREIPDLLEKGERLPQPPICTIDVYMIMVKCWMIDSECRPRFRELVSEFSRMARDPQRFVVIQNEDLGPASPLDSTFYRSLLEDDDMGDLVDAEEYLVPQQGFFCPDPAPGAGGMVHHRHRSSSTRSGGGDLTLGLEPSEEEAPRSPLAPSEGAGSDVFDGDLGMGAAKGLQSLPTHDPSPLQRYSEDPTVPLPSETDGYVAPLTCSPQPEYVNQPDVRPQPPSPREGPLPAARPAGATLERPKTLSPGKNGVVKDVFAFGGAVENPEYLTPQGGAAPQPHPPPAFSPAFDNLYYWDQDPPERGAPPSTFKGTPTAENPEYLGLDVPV
Test: Her2 Exon 20 InsYVMA Lance kinase activity assay
Settings: 1 h incubation, 1,6 µM ATP
Assay Readout: IC50

Molecule | Test Target | Endpoint Value
C=CC(=O)Nc1cc(-c2c(-c3ccc(N4CCN(C)CC4)cc3)[nH]c3ncc(-c4cn(C)nc4C)cc23)ccc1C [Example 5] | HER2 INS YVMA (Homo sapiens, UniProt P04626, INS775YVMA) | ≤ 50 nM
C=CC(=O)Nc1cc(-c2c(-c3ccc(N4CCN(C)CC4)cc3)[nH]c3ncc(-c4cnn(C)c4)cc23)ccc1C [Example 1] | HER2 INS YVMA (Homo sapiens, UniProt P04626, INS775YVMA) | ≤ 50 nM
C=CC(=O)Nc1cc(-c2c(-c3ccc(N4CCN(C)CC4)cc3)[nH]c3ncc(-c4cnn(C5CC5)c4)cc23)ccc1C [Example 6] | HER2 INS YVMA (Homo sapiens, UniProt P04626, INS775YVMA) | ≤ 50 nM
